recorded.metric: melting point

Recorded melting point, per entry:
1. CC12CCC(=O)C([N+](=O)[O-])=C1CCC1C2CCC2(C)C(OC3CC3)CCC12 (stereo unspecified): 133 to 134 °C
2. C1=CCC2=c3cnc4ccccc4c3=NC2=C1: 146 to 148 °C
3. COCCOc1cc2ncnc(NC3=CC(=O)C(Oc4ccc(-n5ccnc5)cc4)=CC3=O)c2cc1OC: 124 to 132 °C
4. CCCCCCCCCCc1ccc(C(=O)NOCc2ccccc2)cc1: 82 to 83 °C
5. CCOC(=O)Nc1sc(-c2ccc([N+](=O)[O-])cc2)c(C)c1C(=O)OCC: 130 to 131 °C
6. O=C(O)[C@H]1C=C[C@@H](c2ccc([N+](=O)[O-])cc2)n2c(=O)n(CCCl)c(=O)n21 (relative stereo): 192 to 194 °C

**Query** Reported melting point for "CC(=O)NNc1ccc(NCc2ccccc2)cc1" : what is it?
**Result** 118 to 120 °C

**Query** "Cc1[nH]c(Br)c(C)c1-c1ccnc(Nc2ccc(F)cc2)n1" ?
**Result** 181 to 183 °C

###

recorded.metric: melting point

**Query** Item under review: CCOC(=O)c1cnc2c(c(C)nc3cc(C)nn32)c1NC(C)CC (stereo not given) . Reported melting point?
**Result** 113 to 115 °C

**Query** # iterate: "c1ccc2c(c1)nc(-c1ccc3c(c1)OCO3)n2CCC1CCCCC1"
**Result** 110 to 111 °C

**Query** Input "C[C@@H](O)[C@H](CN)C(=O)O"
**Result** 120 to 123 °C

**Query** "C[C@@H]1CNC[C@H]2Cc3c(ncc(F)c3C=NO)N21" , same question.
**Result** 195 to 197 °C

**Query** Try the compound "CCOC(=O)CO[C@H]1CC[C@H](CCN(C(=O)c2ccccc2)S(=O)(=O)c2ccc(Cl)cc2)CC1"
**Result** 81 to 82 °C

###

Listed compounds paired with reported melting point

Recorded results for 10 compounds are shown here.
1. COc1c(OC)c(-c2ccccc2)n(-c2ccc(C)cc2)c1-c1ccccc1: 192 to 193 °C
2. COc1cc(O)ccc1-c1ccc2cc(O)ccc2c1: 152 to 154 °C
3. COc1cc(CBr)c(OC)c(CCc2cc(OC)cc(CBr)c2OC)c1: 158 to 161 °C
4. OC(Cn1cnnc1)(Cn1cncn1)Cn1cncn1: 220 °C
5. N#Cc1ccc(OS(N)(=O)=O)cc1: 154 to 156 °C
6. O=C(O)CCC(=O)CCS: 40 to 42 °C
7. N#CC1CN1C(=O)NC(=O)CC1CCCCC1 (centres undefined): 142 to 144 °C
8. O=C1OC(=O)c2cc3cccc([N+](=O)[O-])c3c3cccc1c23: 246 °C
9. FC(F)(F)c1ccc2nc(N3CCN(c4ncccc4C(F)(F)F)CC3)[nH]c2c1: 221 to 224 °C
10. COc1cc(Nc2c(C#N)cnc3cc(/C=C/CCN(C)C)c(OC)cc23)c(Cl)cc1Cl: 119 to 121 °C

**Query** Reported melting point for "COc1ccc2c(c1Cl)C=CN(C(C)=O)C2" : what is it?
**Result** 78 to 80 °C

**Query** Next up: "COc1cccc(CNC(=O)c2nc3cccc(OCCN4CCC(C(=O)O)CC4)c3c(=O)[nH]2)c1"
**Result** 127 to 130 °C
